Molecular target: T1, human CD228 (R&D Systems Custom02; Lot DCWR021505A) (human, UniProt P08582 20-709, limits assumed)
T1 construct: Bought custom protein coated on ELISA plates; also called CD228 protein; melanotransferrin
T1 sequence (looked up): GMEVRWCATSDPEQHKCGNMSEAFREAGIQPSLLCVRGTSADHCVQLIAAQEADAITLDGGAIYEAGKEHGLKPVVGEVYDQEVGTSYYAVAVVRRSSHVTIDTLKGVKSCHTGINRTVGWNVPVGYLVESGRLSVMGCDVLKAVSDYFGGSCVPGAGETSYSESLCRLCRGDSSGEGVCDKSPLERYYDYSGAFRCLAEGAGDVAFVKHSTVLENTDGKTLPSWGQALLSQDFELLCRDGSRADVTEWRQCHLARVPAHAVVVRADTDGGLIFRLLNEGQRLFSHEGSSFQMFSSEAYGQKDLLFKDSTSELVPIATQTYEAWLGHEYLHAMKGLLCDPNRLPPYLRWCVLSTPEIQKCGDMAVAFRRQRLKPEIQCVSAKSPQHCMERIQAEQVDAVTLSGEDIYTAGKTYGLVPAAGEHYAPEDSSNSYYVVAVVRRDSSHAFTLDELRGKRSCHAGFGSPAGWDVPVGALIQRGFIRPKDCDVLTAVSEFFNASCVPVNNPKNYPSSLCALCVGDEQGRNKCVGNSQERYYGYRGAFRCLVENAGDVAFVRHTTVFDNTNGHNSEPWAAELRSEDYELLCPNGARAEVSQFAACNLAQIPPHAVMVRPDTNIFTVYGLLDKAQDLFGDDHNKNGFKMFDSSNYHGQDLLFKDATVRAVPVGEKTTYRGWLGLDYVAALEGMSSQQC
Experiment: ELISA, coated human CD228, pH 6.30
measurement-kind: EC50 (nM)
Please reply with the bare figure in nM and do not write the unit itself.

Study these solved cases before continuing.
>  <binder>
hL49_3X_Gln (antibody, V domains shown, hL49 triple mutant: all three light chain CDR histidines changed to glutamine; also called 3X-Gin) VH: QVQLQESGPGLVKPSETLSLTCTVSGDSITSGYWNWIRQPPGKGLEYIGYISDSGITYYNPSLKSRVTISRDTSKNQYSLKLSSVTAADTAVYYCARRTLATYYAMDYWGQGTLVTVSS VL: DFVMTQSPLSLPVTLGQPASISCRASQSLVQSDGNTYLQWYQQRPGQSPRLLIYRVSNRFSGVPDRFSGSGSGTDFTLKISRVEAEDVGVYYCSQSTQVPPTFGQGTKLEIK

>  <measured-number>
52.6

$$$$
>  <binder>
hL49 (antibody, V domains shown, Humanized antibody; Only variable domains are tied to it; also called hL49 HALC; hL49 WT) VH: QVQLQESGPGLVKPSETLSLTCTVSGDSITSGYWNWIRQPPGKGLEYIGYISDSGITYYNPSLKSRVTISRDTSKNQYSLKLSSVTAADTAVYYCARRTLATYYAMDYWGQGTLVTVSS VL: DFVMTQSPLSLPVTLGQPASISCRASQSLVHSDGNTYLHWYQQRPGQSPRLLIYRVSNRFSGVPDRFSGSGSGTDFTLKISRVEAEDVGVYYCSQSTHVPPTFGQGTKLEIK

>  <measured-number>
136

$$$$
>  <binder>
hL49_27D_Gln (antibody, V domains shown, hL49 variant with the light chain CDR-L1 histidine 27D changed to glutamine) VH: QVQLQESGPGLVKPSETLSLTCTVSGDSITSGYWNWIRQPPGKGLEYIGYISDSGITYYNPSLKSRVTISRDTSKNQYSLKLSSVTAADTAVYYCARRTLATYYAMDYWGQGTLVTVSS VL: DFVMTQSPLSLPVTLGQPASISCRASQSLVQSDGNTYLHWYQQRPGQSPRLLIYRVSNRFSGVPDRFSGSGSGTDFTLKISRVEAEDVGVYYCSQSTHVPPTFGQGTKLEIK

>  <measured-number>
1.48

$$$$

Shift focus to the following entry.
query: Need EC50, item hL49_3X_Ala (antibody, V domains shown, hL49 triple mutant: all three light chain CDR histidines (two in CDR-L1, one in CDR-L3) changed to alanine) VH: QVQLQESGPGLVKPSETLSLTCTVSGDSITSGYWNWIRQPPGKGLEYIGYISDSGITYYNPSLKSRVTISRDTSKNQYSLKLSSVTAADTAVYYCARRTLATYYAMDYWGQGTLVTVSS VL: DFVMTQSPLSLPVTLGQPASISCRASQSLVASDGNTYLAWYQQRPGQSPRLLIYRVSNRFSGVPDRFSGSGSGTDFTLKISRVEAEDVGVYYCSQSTAVPPTFGQGTKLEIK
result: 73.8
